// data source = patent US10301664B2

System: MRSA USA300
method.summary: Library hits: MIC/MBC against MRSA
Type: cell-based, Staphylococcus aureus
condition.parameters: Staphylococcus aureus; read-out: MBC
Hi there, I'd appreciate the recorded MBC for every entry that follows.
Express it in µM; write the number only.

Recorded MBC of `Clc1ccccc1C(c1ccccc1)(c1ccccc1)n1ccnc1` , please.
64

Give the measured MBC of `CCCCCCNC(=O)n1cc(F)c(=O)[nH]c1=O` .
4

I am curious: what MBC value has been reported for `O=c1[nH]cc(F)c(=O)[nH]1` ?
16

Quick one: MBC of `CC(=O)[C@]1(O)Cc2c(O)c3c(c(O)c2[C@@H](O[C@H]2C[C@H](N)[C@H](O)[C@H](C)O2)C1)C(=O)c1ccccc1C3=O` ?
4

Return reported MBC; argument: COc1cccc2c1C(=O)c1c(O)c3c(c(O)c1C2=O)C[C@@](O)(C(=O)CO)C[C@@H]3O[C@H]1C[C@H](N)[C@@H](O)[C@H](C)O1 [Epirubicin]
64

Requested read-out: MBC. Entry: Clc1ccc(COC(Cn2ccnc2)c2ccc(Cl)cc2Cl)c(Cl)c1 (stereo not drawn)
8
